- experimentalProtocol: Cycloheximide Counterscreen for Small Molecule Inhibitors of Shiga Toxin; note: read at 38.3 µM for the half of the compounds with a filed dose; 0% is about no effect
- conditions: cell reporter, cycloheximide protein synthesis inhibition counterscreen; hits give high values
Among all 300,000 compounds or so, about 37,000 (12%) were called active. Only a selection was taken, and actives are over-represented in it overall.
Reported max response by item:
quantity: max response (%)

[[record]]
compound = "O=C(/C=C/Nc1ccccc1)c1cnc(-c2ccccc2)s1"
unitssymbol = "%"
endpointvalue = 1.67

[[record]]
compound = "COc1ccc(N2C(=O)C(CC(=O)Nc3ccccc3)N(Cc3ccc(OC)c(OC)c3)C2=O)cc1 (stereo unspecified)"
unitssymbol = "%"
endpointvalue = 14.6

[[record]]
compound = "CC(=O)c1cnc(-c2ccccc2)s1"
unitssymbol = "%"
endpointvalue = 35.2

[[record]]
compound = "O=S(=O)(c1ccc(F)cc1)n1ccc(-c2cnc(-c3ccccc3)s2)n1"
unitssymbol = "%"
endpointvalue = 1.13

[[record]]
compound = "S=c1[nH]c(-c2cccs2)cn1-c1ccccc1"
unitssymbol = "%"
endpointvalue = 34.1

[[record]]
compound = "Cc1[nH]c2ccccc2c1C(=O)CSCC(=O)O"
unitssymbol = "%"
endpointvalue = -0.861

[[record]]
compound = "Cc1cc(C)c2nc(N3CCC(C(=O)NCCN4CCOCC4)CC3)sc2c1"
unitssymbol = "%"
endpointvalue = -2.32

[[record]]
compound = "O=C(c1ccc(N2CCOCC2)c([N+](=O)[O-])c1)N1CCN(S(=O)(=O)c2cccs2)CC1"
unitssymbol = "%"
endpointvalue = -2

[[record]]
compound = "O=C(COC(=O)/C(=C/c1cccs1)c1cccs1)NCc1ccccc1Cl"
unitssymbol = "%"
endpointvalue = -3.92

[[record]]
compound = "Fc1cc(F)c2nc(N3CCOCC3)sc2c1"
unitssymbol = "%"
endpointvalue = 36.9

[[record]]
compound = "O=C(C1CCCO1)N(c1ccc(F)cc1)C1C=CS(=O)(=O)C1 (stereo unspecified)"
unitssymbol = "%"
endpointvalue = -9.85


* * *

- experimentalProtocol: Cycloheximide Counterscreen for Small Molecule Inhibitors of Shiga Toxin; note: read at 38.3 µM for the half of the compounds with a filed dose; 0% is about no effect
- conditions: cell reporter, cycloheximide protein synthesis inhibition counterscreen
Among all 300,000 compounds or so, about 37,000 (12%) were called active. Rule as the data show it: active = max response mostly above about 13% (no sharp cut-off); inactive = mostly below about 14%. For the sample, actives were picked, then their nearest neighbours and some compounds at random.
Outcomes: active, inactive

[[record]]
compound = "Cc1noc(C)c1COc1cccc(C(=O)Nc2cccnc2)c1"
classification = "inactive"

[[record]]
compound = "O=C(Nc1ccc(Br)cc1)c1cc(S(=O)(=O)Nc2ccccn2)ccc1Cl"
classification = "inactive"

[[record]]
compound = "CC(=O)c1cccc(OCc2cc(C(=O)NC(C)Cc3cccnc3)no2)c1 (centres undefined)"
classification = "active"

[[record]]
compound = "COC(=O)c1c(C)[nH]c(C)c1-c1ccc([N+](=O)[O-])cc1"
classification = "inactive"

[[record]]
compound = "Cc1cc(S(=O)(=O)N2CCOCC2)ccc1OCC(=O)N1CCOCC1"
classification = "inactive"

[[record]]
compound = "Cn1cc(S(=O)(=O)Nc2ccc(Cl)cc2Cl)c(=O)n(C)c1=O"
classification = "inactive"

[[record]]
compound = "CCCOC1CCCN(C(=O)c2cc(COc3cncc(Cl)c3)on2)C1 (centres undefined)"
classification = "active"

[[record]]
compound = "CCOC(=O)C1CCCN(C(=O)c2cncc(Br)c2)C1 (centres undefined)"
classification = "inactive"

[[record]]
compound = "CCOC(=O)CNc1nc2ccccc2n2c(C)nnc12"
classification = "inactive"

[[record]]
compound = "COc1ccc(CNc2nnnn2C)cc1"
classification = "inactive"

[[record]]
compound = "CCOC(=O)CC1(NC(=O)c2cc(COc3cncc(Cl)c3)on2)CCCCC1"
classification = "active"

[[record]]
compound = "COc1ccc2[nH]c3c(C)c4cc[n+](C)cc4c(C)c3c2c1"
classification = "inactive"

[[record]]
compound = "COc1ccc(C)cc1N(C(=O)Cn1nnc(-c2ccc(C)o2)n1)C(C(=O)NC1CCCC1)c1ccncc1 (centres undefined)"
classification = "inactive"

[[record]]
compound = "COc1ccccc1NC(=O)CSc1nnc(CNC(=O)c2ccccc2F)o1"
classification = "inactive"

[[record]]
compound = "COC(=O)C1=C(N)Oc2cc(C)[nH]c(=O)c2C1c1ccc(Cl)cc1 (centres undefined)"
classification = "inactive"

[[record]]
compound = "Cc1cc(Nc2ccccc2)nc(N)n1"
classification = "inactive"

[[record]]
compound = "Fc1ccccc1COc1ccccc1CNCc1ccncc1"
classification = "inactive"

[[record]]
compound = "Cc1nc(-c2ccccc2)cn2c1nc1ccccc12"
classification = "inactive"

[[record]]
compound = "Cc1ccc2nc(Nc3ccccc3O)nc(-c3ccccc3)c2c1"
classification = "inactive"

[[record]]
compound = "Cc1ccc2nc(Nc3ccccc3)cc(C)c2c1"
classification = "active"

[[record]]
compound = "COC(=O)c1c(C)[nH]c(C(=O)/C=C/c2ccc(Cl)cc2)c1C"
classification = "active"

[[record]]
compound = "Fc1ccc(CNc2nc3ccccc3n3nnnc23)cc1"
classification = "active"

[[record]]
compound = "Cc1nc2ccccc2c(=O)n1Cc1ccc([N+](=O)[O-])cc1"
classification = "inactive"

[[record]]
compound = "Cc1ccc(OCCCC(=O)N2CCOCC2)c(C)c1"
classification = "active"


* * *

- experimentalProtocol: Cycloheximide Counterscreen for Small Molecule Inhibitors of Shiga Toxin; note: read at 38.3 µM for the half of the compounds with a filed dose; 0% is about no effect
- conditions: cell reporter, cycloheximide protein synthesis inhibition counterscreen
Screen size: about 300,000 compounds; about 37,000 (12%) were called active. Rule as the data show it: active = max response mostly above about 13% (no sharp cut-off); inactive = mostly below about 14%. The entries come from a sample that favours actives as a whole.
Outcomes: true for active, false for inactive

[[record]]
compound = "Cc1cc(S(=O)(=O)N2CCOCC2)ccc1OCC(=O)Nc1cccc(C(F)(F)F)c1"
classification = "false"

[[record]]
compound = "CN(CCc1ccccc1)c1ccc([N+](=O)[O-])cn1"
classification = "false"

[[record]]
compound = "CC(/C=C/c1ccccc1)=N\\NC(=O)C1CC1(C)c1ccccc1 (centres undefined)"
classification = "false"

[[record]]
compound = "CCOc1ccc(/C=N/NC(=O)CSc2ccccn2)cc1O"
classification = "false"

[[record]]
compound = "FC(F)(F)c1ccc(CN2C[C@@H]3C(c4ccccc4)C4(c5ccccc5)CC3(C4)[C@H]2c2ccccc2)cc1 (some centres undefined)"
classification = "false"

[[record]]
compound = "CCNC(=O)COC(=O)/C=C/c1c(C)nn(Cc2cccc(OC)c2)c1Cl"
classification = "false"

[[record]]
compound = "S=c1[nH]cc(-c2ccc(Cl)cc2)n1-c1ccccc1"
classification = "false"

[[record]]
compound = "O=C(/C=C/c1ccccc1)c1ccccc1O"
classification = "true"

[[record]]
compound = "Cc1cc(C)n(S(=O)(=O)c2cccc([N+](=O)[O-])c2)n1"
classification = "false"

[[record]]
compound = "Cc1ccc(Nc2nnc(SCC(=O)c3cc4ccccc4o3)s2)cc1C"
classification = "false"

[[record]]
compound = "CCN(CC)C(=O)CSc1nnc(-c2cnccn2)n1-c1ccc(C)cc1"
classification = "false"

[[record]]
compound = "Cc1ccccc1OCCOc1ccc([N+](=O)[O-])cc1/C=N/n1cnnc1"
classification = "false"

[[record]]
compound = "CCN1CCN(c2sc(S(C)(=O)=O)nc2S(=O)(=O)c2ccc(Cl)cc2)CC1"
classification = "false"

[[record]]
compound = "Cn1c(SCc2ccc(F)cc2)nnc1-c1ccncc1"
classification = "false"

[[record]]
compound = "O=C(CSc1nnc(-c2cnccn2)n1Cc1ccco1)c1ccc(Cl)c(Cl)c1"
classification = "false"

[[record]]
compound = "O=[N+]([O-])c1cc([N+](=O)[O-])c2cccnc2c1O"
classification = "false"

[[record]]
compound = "O=C(c1ccc(CS(=O)(=O)c2ccccc2)o1)N1CCN(c2ccccc2)CC1"
classification = "false"

[[record]]
compound = "O=c1c(Cl)c(NC2CC2)cnn1-c1ccccc1"
classification = "true"

[[record]]
compound = "COC(=O)c1cccc(N(C(=O)CNC(=O)c2cccs2)C(C(=O)NCC2CCCO2)c2ccc(OC)c(OC)c2)c1 (centres undefined)"
classification = "false"

[[record]]
compound = "COc1ccc(C(=O)/C=C/c2cccnc2)c(OC)c1"
classification = "false"

[[record]]
compound = "Cc1ccc2nc(C)cc(N/N=C/c3ccc(F)cc3)c2c1"
classification = "false"

[[record]]
compound = "Cc1cccc(-n2ncc(Cl)c(Cl)c2=O)c1"
classification = "false"

[[record]]
compound = "CCOc1ccc(/C=N/OCC(=O)NCc2cccs2)cc1"
classification = "false"

[[record]]
compound = "CN(C)/N=C/c1cc(Cl)cc([N+](=O)[O-])c1O"
classification = "false"

[[record]]
compound = "Cc1ccc(C(CNC(=O)Nc2ccccc2)N2CCN(C)CC2)cc1 (centres undefined)"
classification = "false"

[[record]]
compound = "Oc1ccc(-n2nnnc2SCc2c(F)cccc2Cl)cc1"
classification = "false"

[[record]]
compound = "COc1cc(/C=N/NC(=O)c2ccc(N3CCCC3=O)cc2)ccc1O"
classification = "true"

[[record]]
compound = "Cc1cc(C(=O)N/N=C/c2ccccn2)c2ccccc2n1"
classification = "false"

[[record]]
compound = "O=C(/C=C/c1ccccc1)N/C(=C/c1ccccc1)C(=O)Nc1ccccc1O"
classification = "false"

[[record]]
compound = "O=C(/C=C/c1ccccc1)c1ccoc1"
classification = "true"

[[record]]
compound = "COc1ccc(/C=C/C(=O)c2cc(Br)ccc(=O)c2O)cc1"
classification = "false"

[[record]]
compound = "CCCNC(=S)N1CCCC(c2nc3ccccc3[nH]2)C1 (centres undefined)"
classification = "false"

[[record]]
compound = "COc1ccc(C(C(=O)NC(C)(C)C)N(C(=O)Cn2nnc3ccccc32)c2ccc(C(C)=O)cc2)cc1O (centres undefined)"
classification = "true"

[[record]]
compound = "COc1ccc(N(C(=O)c2snc(C(N)=O)c2N)C(C(=O)NC2CCCC2)c2ccco2)cc1OC (centres undefined)"
classification = "false"

[[record]]
compound = "Cc1ccc(NC(=S)Nc2ncccc2C)c(C)c1"
classification = "true"

[[record]]
compound = "Cc1ccccc1N(C(=O)CNC(=O)c1cccs1)C(C(=O)NC1CCCC1)c1ccncc1 (centres undefined)"
classification = "false"

[[record]]
compound = "Fc1ccc2c(c1)C(c1cccnc1)=NNC(c1cccs1)=N2"
classification = "false"

[[record]]
compound = "CCOC(=O)C1CCN(Cc2c(C(=O)N3CCOCC3)nc3c(C)cccn23)CC1"
classification = "false"

[[record]]
compound = "CCOC(=O)N1CCN(C(=S)Nc2ccc(C)cc2C)CC1"
classification = "false"

[[record]]
compound = "O=C(NC1CCCC1)C(c1ccco1)N(C(=O)c1csnn1)c1ccccc1 (centres undefined)"
classification = "false"

[[record]]
compound = "CN(Cc1ccccc1)C(=O)COC(=O)c1ccccc1Nc1ccccc1"
classification = "false"

[[record]]
compound = "CCC(C)(C)NC(=O)C(c1ccc(O)cc1)N(C(=O)Cn1nnc2ccccc21)c1ccc(NC(C)=O)cc1 (centres undefined)"
classification = "false"

[[record]]
compound = "COC(=O)c1ccc2c(=O)n(CCN3CCOCC3)c(SCC(=O)Nc3cccc(OC)c3)nc2c1"
classification = "false"

[[record]]
compound = "Cc1cc(=O)[nH]c(N/N=C/c2c(C)nn(-c3ccccc3Cl)c2Cl)n1"
classification = "true"


All values here come from PubChem BioAssay AID2314.
